These data points were gathered from ChEMBL document CHEMBL3232902.

# experiment: Cytotoxicity against human MT2 cells
metric: CC50

Look up CC50 for this compound: CC(C)OC(=O)[C@H](C)N[P@](=O)(CO[C@H](C)Cn1cnc2c(N)ncnc21)Oc1ccccc1 [TENOFOVIR ALAFENAMIDE] 40 µM

====

# Test system: HeLa
# experiment: Cytostatic activity against human HeLa cells after 72 hrs by coulter counting analysis
# Assay type: functional, cell-based
# assay.context: Homo sapiens, HeLa, 72 h
Note to self: use Condition met only for IC50 readings below 2000 nM; a reading exactly at 2000 nM still gets Condition not met.

Worked cases, answers included:
[[record]]
compound = "C[C@H](NP(=O)(COCCn1cnc2c(N)ncnc21)Oc1ccccc1)C(=O)OCC(C)(C)C (some centres not stated)"
measurement_target = "HeLa"
group = "Condition not met"

[[record]]
compound = "Nc1ncnc2c1ncn2CCOCP(=O)(O)O [ADEFOVIR]"
measurement_target = "HeLa"
group = "Condition not met"

[[record]]
compound = "C[C@H](NP(=O)(COCCn1cnc2c(N)ncnc21)N[C@@H](C)C(=O)OCc1ccccc1)C(=O)OCc1ccccc1"
measurement_target = "HeLa"
group = "Condition met"

[[record]]
compound = "C[C@H](NP(=O)(COCCn1cnc2c(N)ncnc21)Oc1cccc2ccccc12)C(=O)OCC(C)(C)C (some centres not stated)"
measurement_target = "HeLa"
group = "Condition met"

[[record]]
compound = "C[C@H](Cn1cnc2c(N)ncnc21)OCP(=O)(O)O [TENOFOVIR ANHYDROUS]"
measurement_target = "HeLa"
group = "Condition not met"

[[record]]
compound = "C[C@H](Cn1cnc2c(N)ncnc21)OCP(=O)(N[C@@H](C)C(=O)OCC(C)(C)C)Oc1cccc2c1CCCC2 (some centres not stated)"
measurement_target = "HeLa"
group = "Condition not met"


API: query returns whether the compound falls strictly under 2000 nM in IC50. Query: `C[C@H](NP(=O)(COCCn1cnc2c(N)ncnc21)N[C@@H](C)C(=O)OCC(C)(C)C)C(=O)OCC(C)(C)C` Condition met

====

# experiment: Cytotoxicity against human CEM cells
# Assay type: cell-based, CCRF-CEM
# assay.context: CEM (CCRF-CEM) cells
metric: log10(CC50) (log10 of the value in nM)
A value of 2 here means CC50 of 100 in nM, since values are log10.

[[record]]
compound = "C[C@H](NP(=O)(COCCn1cnc2c(N)ncnc21)N[C@@H](C)C(=O)OCC(C)(C)C)C(=O)OCC(C)(C)C"
endpoint_value = 2.30

[[record]]
compound = "C[C@H](NP(=O)(COCCn1cnc2c(N)ncnc21)Oc1ccccc1)C(=O)OCC(C)(C)C (stereo partly specified)"
endpoint_value = 2.60

[[record]]
compound = "C[C@H](NP(=O)(COCCn1cnc2c(N)ncnc21)Oc1cccc2c1CCCC2)C(=O)OCC(C)(C)C (stereo partly specified)"
endpoint_value = 1.28

[[record]]
compound = "C[C@H](NP(=O)(COCCn1cnc2c(N)ncnc21)Oc1cccc2ccccc12)C(=O)OCc1ccccc1 (stereo partly specified)"
endpoint_value = 2.08


# evaluate next
Fill blank: measured log10(CC50) of the compound `C[C@H](Cn1cnc2c(N)ncnc21)OCP(=O)(N[C@@H](C)C(=O)OCc1ccccc1)N[C@@H](C)C(=O)OCc1ccccc1` is ____. 3.84

====

Please respond with reported pIC50 for every item in the list.
# Test system: L1210
# experiment: Cytostatic activity against mouse L1210 cells after 48 hrs by coulter counting analysis
# Format: functional, cell-based
# assay.context: Mus musculus, L1210, 48 h
Answers are plain numbers, as −log10 of the molar value.

Example results:
[[record]]
compound = "C[C@H](Cn1cnc2c(N)ncnc21)OCP(=O)(O)O [TENOFOVIR ANHYDROUS]"
endpoint_value = 4.96

[[record]]
compound = "C[C@H](Cn1cnc2c(N)ncnc21)OCP(=O)(N[C@@H](C)C(=O)OCC(C)(C)C)Oc1ccccc1 (stereo not given in full)"
endpoint_value = 5.40

[[record]]
compound = "C[C@H](Cn1cnc2c(N)ncnc21)OCP(=O)(N[C@@H](C)C(=O)OCc1ccccc1)Oc1cccc2ccccc12 (stereo not given in full)"
endpoint_value = 5.43

[[record]]
compound = "Nc1ncnc2c1ncn2CCOCP(=O)(O)O"
endpoint_value = 5.52


Requested field: pIC50. Item: `C[C@H](NP(=O)(COCCn1cnc2c(N)ncnc21)N[C@@H](C)C(=O)OCc1ccccc1)C(=O)OCc1ccccc1` 6.68
